Assay notes: M. tuberculosis growth inhibition, HTS (AID 449762);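 note: bacterial growth assessed after seven days of incubation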
Details: M. tuberculosis H37Rv growth inhibition, 7H9 media; at 25 µM; hits give high values
Hit rate of the full screen: of about 330,000 compounds, about 1,900 (0.58%) were called active. Inconclusive results (about 4%) are left out. Not all results are given here. Potency and affinity values are given separately.
inhibition reference

[
  {
    "Compound": "CSc1ncccc1C(=O)N(C)CC(=O)Nc1ccc(Cl)c(C(F)(F)F)c1",
    "Readout unit": "%",
    "inhibition": -3
  },
  {
    "Compound": "CCOc1ccc(CCNS(=O)(=O)c2ccc3c(c2)NC(=O)CO3)cc1OCC",
    "Readout unit": "%",
    "inhibition": -0.19
  },
  {
    "Compound": "O=C(NNC(=S)Nc1ccccc1)c1ccncc1",
    "Readout unit": "%",
    "inhibition": 7.24
  },
  {
    "Compound": "COc1ccc(N2CCN(C(=O)C3CC(=O)N(c4ccc(C)cc4)C3)CC2)cc1 (stereo not given)",
    "Readout unit": "%",
    "inhibition": 5.21
  },
  {
    "Compound": "O=C(CN1CCC(n2nnc3ccccc32)CC1)NCc1cccs1",
    "Readout unit": "%",
    "inhibition": -0.03
  },
  {
    "Compound": "CSc1ccccc1NC(=O)Nc1cccc(F)c1",
    "Readout unit": "%",
    "inhibition": 1.3
  },
  {
    "Compound": "COC(=O)C1C2c3ccccc3OC1(C)N=c1s/c(=C/c3cn(C)nc3C)c(=O)n12 (stereo not given)",
    "Readout unit": "%",
    "inhibition": -3.81
  },
  {
    "Compound": "CC[C@@H]1CN(C)[C@H]2Cc3c([nH]c4ccccc34)C(=O)C[C@@H]1[C@@H]2C(=O)OC",
    "Readout unit": "%",
    "inhibition": -5.83
  },
  {
    "Compound": "CS(=O)(=O)N(CC(=O)N1CCCC1)c1ccccc1F",
    "Readout unit": "%",
    "inhibition": -1.03
  },
  {
    "Compound": "CCCCn1c(N)c(N(CC(C)C)C(=O)CCCc2nc3ccccc3c(=O)[nH]2)c(=O)[nH]c1=O",
    "Readout unit": "%",
    "inhibition": 0.43
  },
  {
    "Compound": "CCn1nc(NC(=O)c2ccncc2)c2cc3ccccc3nc21",
    "Readout unit": "%",
    "inhibition": 2.23
  },
  {
    "Compound": "COc1ccccc1C(=O)c1c(C)c(CCC#N)n2ccccc12",
    "Readout unit": "%",
    "inhibition": 2.58
  },
  {
    "Compound": "O=C(CCSc1nc(-c2ccco2)cc(C(F)(F)F)n1)NCc1ccccn1",
    "Readout unit": "%",
    "inhibition": -4.91
  },
  {
    "Compound": "NCCCn1c(C(=O)c2ccc(Cl)cc2)c2ccc(C(F)(F)F)cc2[n+]1[O-]",
    "Readout unit": "%",
    "inhibition": 1.61
  },
  {
    "Compound": "O=C1O/C(=C/c2ccccc2)c2ccccc21",
    "Readout unit": "%",
    "inhibition": 4.48
  },
  {
    "Compound": "Cc1cccc(NC(=O)CSc2nc(N)c(NC(=O)c3ccccc3F)c(=O)[nH]2)c1",
    "Readout unit": "%",
    "inhibition": -17.1
  },
  {
    "Compound": "Cc1cc(C)c(C(N)=O)c(SCC(=O)c2cc(C)c(C)cc2C)n1",
    "Readout unit": "%",
    "inhibition": 5.89
  },
  {
    "Compound": "Cc1ccc(S(=O)(=O)Nc2ccc3ccccc3n2)cc1",
    "Readout unit": "%",
    "inhibition": 0.36
  },
  {
    "Compound": "CCC(=O)Nc1ccc(NC(=O)c2ccc3ccccc3c2)cc1",
    "Readout unit": "%",
    "inhibition": -4.7
  },
  {
    "Compound": "CCC(C)NS(=O)(=O)c1ccc(NS(C)(=O)=O)cc1 (stereo not given)",
    "Readout unit": "%",
    "inhibition": 4.07
  },
  {
    "Compound": "Cc1ccc(OCCC(=O)OCC(=O)NC(=O)NC2CCCC2)cc1",
    "Readout unit": "%",
    "inhibition": 6.88
  },
  {
    "Compound": "c1cc(CNC2C3CC4CC(C3)CC2C4)ccn1 (stereo not given)",
    "Readout unit": "%",
    "inhibition": 10.3
  },
  {
    "Compound": "Cc1ccc(/C=N/NC(=O)Cc2cccn2C)s1",
    "Readout unit": "%",
    "inhibition": 4.27
  },
  {
    "Compound": "O=C(O)CCSc1ccccn1",
    "Readout unit": "%",
    "inhibition": -6.45
  },
  {
    "Compound": "Cc1cccc2c1-c1sc(C(=O)Nc3cccc([N+](=O)[O-])c3C)cc1CO2",
    "Readout unit": "%",
    "inhibition": -9.42
  },
  {
    "Compound": "CCC(C)NC(=S)Nc1ccc(F)cc1 (stereo not given)",
    "Readout unit": "%",
    "inhibition": -4.81
  },
  {
    "Compound": "Cc1cccc(N2C(=O)C(Cl)=C(N3CCOCC3)C2=O)c1",
    "Readout unit": "%",
    "inhibition": -0.44
  },
  {
    "Compound": "O=C(CCc1n[nH]c(=O)[nH]c1=O)N1CCOCC1",
    "Readout unit": "%",
    "inhibition": -14.1
  },
  {
    "Compound": "CC(=O)C1C2c3ccccc3OC1(C)N=c1s/c(=C/c3cn(C)nc3C)c(=O)n12 (stereo not given)",
    "Readout unit": "%",
    "inhibition": 1.62
  },
  {
    "Compound": "O=C(O)c1ccccc1C(=O)NCCc1c(C(=O)O)[nH]c2ccc(Cl)cc12",
    "Readout unit": "%",
    "inhibition": 7.67
  },
  {
    "Compound": "O=[N+]([O-])c1ccc(Nc2ccc(F)cc2)nc1",
    "Readout unit": "%",
    "inhibition": -2.27
  },
  {
    "Compound": "N#C/C(=C/c1ccc(Sc2nc3ccccc3[nH]2)o1)c1cccc(F)c1",
    "Readout unit": "%",
    "inhibition": 3
  },
  {
    "Compound": "CSc1nnc(C)c(/C=C/NOCc2ccc(Cl)cc2)n1",
    "Readout unit": "%",
    "inhibition": -4.59
  },
  {
    "Compound": "O=C1/C(=C/c2ccccn2)SC(=S)N1NS(=O)(=O)c1ccccc1",
    "Readout unit": "%",
    "inhibition": 5.72
  },
  {
    "Compound": "CCN(CC)S(=O)(=O)c1ccc(N2CCOCC2)c(NS(=O)(=O)c2ccc(C(C)C)cc2)c1",
    "Readout unit": "%",
    "inhibition": -4.72
  },
  {
    "Compound": "O=C1N(CCCN2C(=O)C3(OCCO3)c3ccccc32)c2ccccc2C12OCCO2",
    "Readout unit": "%",
    "inhibition": -3.19
  },
  {
    "Compound": "CCn1nc(NC(=O)c2ccncc2)c2cc3ccc(C)cc3nc21",
    "Readout unit": "%",
    "inhibition": 4.05
  },
  {
    "Compound": "Cc1ccsc1C(=O)Nc1cccc(-n2cnnn2)c1",
    "Readout unit": "%",
    "inhibition": -0.76
  },
  {
    "Compound": "O=C1N(CCCCN2C(=O)C3(OCCO3)c3ccccc32)c2ccccc2C12OCCO2",
    "Readout unit": "%",
    "inhibition": -3.23
  },
  {
    "Compound": "Cc1noc(C(F)(F)F)c1C(=O)NNC(=O)c1cccc(C(F)(F)F)c1",
    "Readout unit": "%",
    "inhibition": 3.93
  },
  {
    "Compound": "COc1ccc(NC(=O)CSc2ccccc2)cc1S(=O)(=O)N1CCOCC1",
    "Readout unit": "%",
    "inhibition": 9.25
  },
  {
    "Compound": "Cc1nn(C)c(C)c1/C=C(/C(=O)C(C)(C)C)n1cncn1",
    "Readout unit": "%",
    "inhibition": -1.56
  },
  {
    "Compound": "CCNc1cc(N2CCN(C)CC2)ccc1[N+](=O)[O-]",
    "Readout unit": "%",
    "inhibition": -1.18
  },
  {
    "Compound": "Cc1ccc(C(=O)CSc2nc(C)cc(C)c2C(N)=O)cc1",
    "Readout unit": "%",
    "inhibition": 69
  },
  {
    "Compound": "CC1CCCCN1Cc1c(O)ccc2c(=O)c(-c3ccc(Cl)cc3)coc12 (stereo not given)",
    "Readout unit": "%",
    "inhibition": 0.71
  }
]
